# Tgt: recombinant soluble homotrimeric HA, A/Vietnam/1203/04 H5N1 (Influenza A virus A/VietNam/1203/2004(H5N1))
# Measurement Notes: microarray, transfection SN IgG, trimeric HA
# Measurement Conditions: remark: other sources report otherwise
Measure Name: Trimeric HA Binding: RLU

Binder	Observed Result
TCN-557 (5081_A04) (antibody, V domains shown) VH: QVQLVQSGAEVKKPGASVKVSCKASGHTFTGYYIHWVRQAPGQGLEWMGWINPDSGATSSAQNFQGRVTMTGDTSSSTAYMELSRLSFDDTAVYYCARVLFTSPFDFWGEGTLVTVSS VL: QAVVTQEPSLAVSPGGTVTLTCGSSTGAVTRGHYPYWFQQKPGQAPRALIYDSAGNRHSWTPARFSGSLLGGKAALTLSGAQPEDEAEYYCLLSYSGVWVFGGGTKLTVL	21300 RLU
